Target: UniProt:P21730
Sequence (P21730 1-350): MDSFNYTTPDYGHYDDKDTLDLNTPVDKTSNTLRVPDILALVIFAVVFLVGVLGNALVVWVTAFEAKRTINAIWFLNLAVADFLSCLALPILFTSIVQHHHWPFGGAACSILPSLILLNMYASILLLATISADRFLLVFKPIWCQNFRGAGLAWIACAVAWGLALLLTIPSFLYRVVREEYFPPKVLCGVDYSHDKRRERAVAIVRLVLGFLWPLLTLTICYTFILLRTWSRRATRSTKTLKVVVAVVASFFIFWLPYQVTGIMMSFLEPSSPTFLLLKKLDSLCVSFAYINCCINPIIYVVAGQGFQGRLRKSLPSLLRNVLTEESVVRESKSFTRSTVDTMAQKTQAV
Test: hC5a DISCO IC50 assay (PathHunter beta-arrestin, antagonist mode)
Conditions: CHO-K1 C5AR1 beta-arrestin cell line; antagonist vs 1-10 nM C5a agonist; geometric mean values; read-out: C5aR IC50
Quantity: IC50

q: Param item = COc1cccc2c1n(Cc1ccccc1C(F)(F)F)c(=O)n2[C@@H]1CCN(c2c(F)cccc2CN2CCN(C)CC2)C1 ; retrieve measured IC50.
a: 314 nM

q: Now the compound Cc1cccc(F)c1N1CC[C@@H](n2c(=O)n(Cc3ccccc3C(F)(F)F)c3c(N4CCOCC4)nccc32)C1
a: 53 nM

q: Moving on to COc1cccc2c1n(Cc1nccnc1OC(C)C)c(=O)n2[C@@H]1CCN(c2c(C)cccc2F)C1
a: 24 nM

q: Another compound to look at: COc1cccc2c1n(Cc1ccccc1C(F)(F)F)c(=O)n2C1CCN(c2c(F)ccnc2C)CC1
a: 227 nM

q: Then COc1nccnc1Cn1c(=O)n(C2CCN(c3c(F)cccc3C#N)CC2)c2cccc(OC)c21 ?
a: 1350 nM

q: Request: COc1cccc2c1n(Cc1cnccc1C(F)(F)F)c(=O)n2C1CCN(c2c(C)cccc2C)CC1
a: 25 nM

q: Then COc1cccc2c1n(Cc1ccccc1C(F)(F)F)c(=O)n2C1CCN(C(=O)OC(C)(C)C)CC1 ?
a: 621 nM

q: Continue with COc1cccc(C)c1N1CC[C@@H](n2c(=O)n(Cc3ccccc3C(F)(F)F)c3c(OC)nccc32)C1
a: 62 nM

q: Thanks! And COc1cccc2c1n(Cc1ccccc1C(F)(F)F)c(=O)n2[C@@H]1CCN(C(=O)OC(C)C)C1 ?
a: 65 nM

q: Can you check COc1cccc2c1n(Cc1ccccc1C(F)(F)F)c(=O)n2[C@H]1CN(c2c(C)cccc2F)C[C@H]1C (relative stereo) next?
a: 19 nM

q: Now consider COc1cccc2c1n(Cc1ccccc1C(F)(F)F)c(=O)n2[C@@H]1CCN(c2c(Cl)cnnc2Cl)C1 and answer again.
a: 683 nM

q: Quick one: Cc1cccc(C)c1N1CC[C@@H](n2c(=O)n(Cc3ccccc3C(F)(F)F)c3c(O)cccc32)C1
a: 13 nM

q: // next record COc1cccc2c1n(Cc1ccccc1OC(F)(F)F)c(=O)n2[C@@H]1CCN(C(=O)OC(C)(C)C)C1
a: 36 nM

q: // repeat for COc1cccc2c1n(Cc1ccccc1C(F)(F)F)c(=O)n2C1CCN(C(=O)C2CC2)CC1 and report
a: 2650 nM

q: Similarly, COc1ccccc1Cn1c(=O)n([C@@H]2CCN(c3c(C)cccc3F)C2)c2ccnc(OC)c21 ?
a: 121 nM

q: Another: COc1cccc2c1n(Cc1ccccc1C(F)(F)F)c(=O)n2C1CCN(c2c(F)cccc2C=O)C(C)C1 (centres unmarked)
a: 16 nM

q: Similarly, COc1cccc2c1n(Cc1ccccc1C(F)(F)F)c(=O)n2C1CC2CC1CN2C(=O)OC(C)(C)C (centres unmarked) ?
a: 313 nM

q: What do you have for COc1nccc2c1n(Cc1ccccc1C(F)(F)F)c(=O)n2[C@@H]1CCN(c2c(C)cccc2C)C1 ?
a: 18 nM

q: Follow-up entry: COc1cccc2c1n(Cc1cncnc1C(C)C)c(=O)n2[C@@H]1CCN(c2c(C)cccc2F)C1
a: 14 nM

q: Next record, please: COc1cccc2c1n(Cc1ccccc1C(F)(F)F)c(=O)n2C1CCN(C(C)C)CC1
a: 4510 nM

q: Proceed to COc1cccc2c1n(Cc1ccccc1C(F)(F)F)c(=O)n2C1CCN(c2ccccc2OC2CCC2)CC1
a: 36 nM

q: // same read-out, input: COc1cccc2c1n(Cc1ccccc1C(F)(F)F)c(=O)n2C1CCN(C(=O)OC(C)(C)C)CC1C (centres unmarked)
a: 201 nM

q: What about COc1cccc2c1n(Cc1ccccc1C(F)(F)F)c(=O)n2[C@@H]1CCN(c2c(F)cccc2F)C1 ?
a: 11 nM

q: Note, next up: Cc1cccc(F)c1N1CCC(n2c(=O)n(Cc3ccccc3C(F)(F)F)c3c(C)cccc32)CC1
a: 111 nM

q: Similarly, COc1cccc2c1n(Cc1ccccc1C(F)(F)F)c(=O)n2[C@H]1CN(C(=O)OC(C)(C)C)C[C@H]1C (relative stereo) ?
a: 119 nM

q: Now consider COc1cccc2c1n(Cc1ccccc1C(F)(F)F)c(=O)n2[C@@H]1CCN(C(=O)Oc2ccccc2)C1 .
a: 729 nM

q: Quick one: COc1cccc2c1n(Cc1ccccc1C(F)(F)F)c(=O)n2C1CCN(c2c(C)cccc2C)CC1
a: 18 nM

q: Now this one: COc1cccc2c1n(Cc1ccccc1C(F)(F)F)c(=O)n2[C@@H]1CCN(c2c(F)cccc2CCCN2CCOCC2)C1
a: 135 nM

q: Now try COCCNc1nccc2c1n(Cc1ccccc1C(F)(F)F)c(=O)n2[C@@H]1CCN(c2c(C)cccc2F)C1 .
a: 508 nM
